This section presents compounds with their documented cytotoxicity at 10 µM values.
# PROCEDURE DETAILS: Toxicity liver stage against HepG2, at 10uM
# Type: cell-based
# Parameters: test concentration 10 uM, cell line HepG2-A16-CD81EGFP
# MEASUREMENT SETUP: human, HepG2-A16-CD81EGFP cells; read-out: INHIBITION
READOUT TYPE: cytotoxicity at 10 µM (%)

>>> value("CC(=O)c1cnc(NCCN2CCCC2)nc1C")
-3.73
>>> value("O=C(Nc1cccnc1)[C@H]1CO[C@H]2CCN(c3ncc(F)cn3)C[C@H]2C1")
-12.8
>>> value("O=C(O)c1cc(S(=O)(=O)N2CCOc3ccccc32)ccc1F")
-2.94
>>> value("CCOc1ncc(NC(=O)c2ccccn2)c(OCC)n1")
-0.191
>>> value("Cc1cc(C)c(S(=O)(=O)Nc2ccccc2CC(F)(F)F)cc1C(=O)O")
-1.47
>>> value("Cc1oncc1C(=O)N1CCc2ncnc(-c3cnn(C)c3)c2CC1")
7.07
>>> value("Cc1nc(C)n(C2CCCN(C(=O)c3sccc3C3CC3)C2)n1 (stereo unspecified)")
-9.68
>>> value("O=C(O)[C@]12CCCN(Cc3ccco3)C[C@H]1CN(c1ncccn1)C2")
7.34
>>> value("Cc1ccc(CN2CC[C@H](c3nc4cccc(C(N)=O)c4[nH]3)C2)cc1")
35.1
>>> value("Cc1nc(-c2cccnc2)ncc1C(=O)N1CCC(C(C)N(C)C)CC1 (stereo unspecified)")
-1.8
>>> value("NC(=O)C(NC(=O)COC1CCCC1)c1ccccc1 (stereo unspecified)")
3.25
